Data origin: PubChem BioAssay AID2060910

# System: 242566-281-R-J2-PDC complex spheroid viability;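 also: spheroids exposed to compound for 7 days before readout; 100% = DMSO vehicle control wells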
# TEST SUMMARY: Anticancer human tumor 242566-281-R-J2-PDC patient-derived pancreatic carcinoma cell line growth inhibition [RAS]
# EXPERIMENTAL CONDITIONS: second compound 0.00316 µM; first compound 3.16 µM; stronger effect = lower value
Below: a set of entries, each annotated with reported viability, T/C.
MEASURE NAME: viability, T/C (%)

INSERT INTO results (compound, unit_abbrev, meas_value) VALUES
  ('C[C@@H](NC(=O)c1ncnc(N)c1Cl)c1ncc(C(=O)Nc2cc(C(F)(F)F)c(Cl)cn2)s1 + C=CC(=O)N1CCN(c2nc(OCC3CCCN3C)nc3c(F)c(-c4nc(N)cc(C)c4C(F)(F)F)c(Cl)cc23)C(C)C1', '%', 110),
  ('NC1c2ccccc2OC12CCN(c1cnc3c(N4CCCc5ncccc54)n[nH]c3n1)CC2 (stereo not drawn) + C=CC(=O)N1CCN(c2nc(OCC3CCCN3C)nc3c(F)c(-c4nc(N)cc(C)c4C(F)(F)F)c(Cl)cc23)C(C)C1', '%', 79.5),
  ('CC(Nc1ccc2c(c1)OCCn1cc(N3C(=O)OCC3C(F)F)nc1-2)C(N)=O (stereo not drawn) + C=CC(=O)N1CCN(c2nc(OCC3CCCN3C)nc3c(F)c(-c4nc(N)cc(C)c4C(F)(F)F)c(Cl)cc23)C(C)C1', '%', 34.7);
